# Method Notes: Ratio of drug level in brain to plasma in Sprague-Dawley rat
# Format: ADME, organism-based
# Test Conditions: brain and plasma
Observation Type: Kp

[
  {
    "Substance Smiles": "CC(C)c1cc(C(C)C)n(C[C@H](NC(=O)Nc2ccc(F)cc2F)C(C)C)n1",
    "Kp": 1
  },
  {
    "Substance Smiles": "CC(C)c1cc(C(C)C)n(C[C@H](OC(=O)Nc2ccc(F)cc2F)C(C)C)n1",
    "Kp": 1
  }
]

* * *

# Method Notes: Metabolic stability in rat liver microsomes
# Type: ADME, Microsome
# Test Conditions: read-out: Stability
Observation Type: microsomal CLint

Request: Name the recorded microsomal CLint for CC(C)c1cc(C(C)C)n(C[C@H](OC(=O)Nc2ccc(F)cc2F)C(C)C)n1 .
Result: > 399 µL/min/mg

* * *

# Measured Target: Neuronal acetylcholine receptor; alpha4/beta2 (Homo sapiens) (UniProt P17787+P43681)
# Method Notes: Activity at human alpha4beta2 nAChR assessed as potentiation of nicotine-induced response by fluorescent Ca2+ flux assay relative to nicotine
Observation Type: Efficacy (%)

Observe how each entry below is paired with its result.
[
  {
    "Compound": "CC(C)c1cc(C(C)C)n(C[C@@H](NC(=O)Nc2ccc(F)cc2F)C(C)C)n1",
    "Unit String": "%",
    "Efficacy": 19
  },
  {
    "Compound": "CCCOc1ccc(NC(=O)O[C@@H](Cn2nc(C(C)C)cc2C(C)C)C(C)C)cc1",
    "Unit String": "%",
    "Efficacy": 107
  },
  {
    "Compound": "CC(C)c1cc(C(C)C)n(CC(OC(=O)Nc2ccc(F)cc2F)C(C)(C)C)n1 (racemic)",
    "Unit String": "%",
    "Efficacy": 11
  }
]

A = CC(C)c1cc(C(C)C)n(C[C@@H](OC(=O)Nc2ccc(F)cc2F)C(C)C)n1
B = CC(C)c1cc(C(C)C)n(CC(OC(=O)Nc2ccccc2)C(C)C)n1 (racemic)
Request: Determine, for A and B , which has the greater value of Efficacy. I would appreciate it if you answered with the label of your choice.
Result: B
(B: 18%, A: 9%)

* * *

# Measured Target: Neuronal acetylcholine receptor; alpha4/beta2 (Homo sapiens) (UniProt P17787+P43681)
# Method Notes: Activity at human alpha4beta2 nAChR assessed as potentiation of nicotine-induced response by fluorescent Ca2+ flux assay relative to nicotine
Observation Type: Efficacy (%)

[
  {
    "Compound": "CC[C@H](Cn1nc(C(C)C)cc1C(C)C)OC(=O)Nc1ccc(F)cc1F",
    "Observation Type": "Efficacy",
    "Recorded Number": 83
  },
  {
    "Compound": "CC(C)c1cc(C(C)C)n([C@@H](C)[C@@H](C)OC(=O)Nc2ccc(F)cc2F)n1 (racemic)",
    "Observation Type": "Efficacy",
    "Recorded Number": 10
  },
  {
    "Compound": "CCc1cc(C(F)(F)F)nn1C[C@H](OC(=O)Nc1ccc(F)cc1F)C(C)C",
    "Observation Type": "Efficacy",
    "Recorded Number": 50
  },
  {
    "Compound": "CC(C)c1cc(C(C)C)n([C@@H]2CCC[C@H]2OC(=O)Nc2ccc(F)cc2F)n1",
    "Observation Type": "Efficacy",
    "Recorded Number": 73
  },
  {
    "Compound": "CC(C)c1cc(C(C)C)n(C[C@@H](C)OC(=O)Nc2ccc(F)cc2F)n1",
    "Observation Type": "Efficacy",
    "Recorded Number": 15
  },
  {
    "Compound": "Cc1cccc(NC(=O)O[C@@H](Cn2nc(C(C)C)cc2C(C)C)C(C)C)c1",
    "Observation Type": "Efficacy",
    "Recorded Number": 25
  },
  {
    "Compound": "CC(C)[C@H](Cn1nccc1C(F)(F)F)OC(=O)Nc1ccc(F)cc1F",
    "Observation Type": "Efficacy",
    "Recorded Number": 30
  },
  {
    "Compound": "CC[C@H](Cn1ccc(C(F)(F)F)n1)OC(=O)Nc1ccc(F)cc1F",
    "Observation Type": "Efficacy",
    "Recorded Number": 15
  }
]

1 = CC(C)c1cc(C(C)C)n(C[C@H](OC(=O)NC2CCCCC2)C(C)C)n1
2 = CC[C@H](Cn1nc(C(F)(F)F)cc1C1CCNCC1)OC(=O)Nc1ccc(F)cc1F
Request: Returns: the label, 1 or 2 , whose recorded Efficacy is the lower number. I would appreciate it if you answered with the label of your choice.
Result: 2
(2: -3%, 1: 13%)
